system under test: Cytochrome P450 2D6 (Homo sapiens)
Sequence (P10635 whole entry): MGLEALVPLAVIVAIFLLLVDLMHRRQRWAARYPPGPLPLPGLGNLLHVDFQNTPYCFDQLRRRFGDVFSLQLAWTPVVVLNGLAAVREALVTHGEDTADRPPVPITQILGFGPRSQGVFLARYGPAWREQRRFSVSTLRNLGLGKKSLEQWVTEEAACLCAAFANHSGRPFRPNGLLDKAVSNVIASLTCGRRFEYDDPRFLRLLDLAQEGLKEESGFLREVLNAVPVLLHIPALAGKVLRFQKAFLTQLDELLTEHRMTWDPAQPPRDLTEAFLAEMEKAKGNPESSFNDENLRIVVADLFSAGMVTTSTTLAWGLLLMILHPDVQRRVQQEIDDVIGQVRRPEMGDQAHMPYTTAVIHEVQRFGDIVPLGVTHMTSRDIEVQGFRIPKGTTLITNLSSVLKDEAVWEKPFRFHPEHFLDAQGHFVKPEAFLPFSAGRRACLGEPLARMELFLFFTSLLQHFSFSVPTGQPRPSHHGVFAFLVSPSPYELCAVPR
test: Inhibition of CYP2D6 in human liver microsomes using dextromethorphan as substrate in presence of NADPH
Format: ADME, Microsome
pIC50: −log10 of the molar value.
metric name: pIC50

Fill blank: measured pIC50 of the compound O=C1CCN(c2cc(C(=O)N3CCC(CC4CCN(c5ccc(-c6cnc7[nH]cc(-c8cnn(CC(F)(F)F)c8)c7n6)cn5)CC4)CC3)ccc2Cl)C(=O)N1 is ____.
< 5.00

---

test: in vivo
measurement context: beagle, dog, po, 5 mg/kg
Description: Oral bioavailability in Beagle dog at 5 mg/kg measured upto 24 hrs by LC-MS analysis
metric name: bioavailability at 24 h (%)
Field: numeric (%). Do not append units.

Param item = O=C1CCN(c2cc(C(=O)N3CCC(CC4CCN(c5ccc(-c6cnc7[nH]cc(-c8cnn(CC(F)(F)F)c8)c7n6)cn5)CC4)CC3)ccc2Cl)C(=O)N1 ; retrieve measured bioavailability at 24 h.
16

Cited source: ChEMBL document CHEMBL6092203
